Cited source: PubChem BioAssay

Test: small-molecule microarray binders of probe aDKK1, primary screen, biochemical, biotinylated probe, 635/667 nm fluorescence (AID 1099);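 also: score merges 667nm spot fluorescence with signal to noise across triplicate slides; reference of the scale not given here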
Details: higher = more signal
Decision: composite z-score compared against 0.2; not below it gives Fulfilled, below it gives Not fulfilled.

Example results:
[[record]]
compound = "C=CCC(OC(C)=O)[C@@H]1[C@@H](N(Cc2ccc(-c3ccccc3)cc2)C(=O)c2cccc3ccccc23)c2cc(OCCCO)ccc2N1C(=O)Cc1ccc2ccccc2c1 (some centres not stated)"
assignedclass = "Not fulfilled"

[[record]]
compound = "Cc1ccc(S[C@]2(C(=O)NCc3ccccc3)CC(=O)N(C(C)C)[C@@H]2c2ccc(CO)cc2I)cc1"
assignedclass = "Fulfilled"

[[record]]
compound = "C=C[C@@H](C)[C@H](OC(=O)Nc1ccc(SC)cc1)c1ccc(OCCO)cc1"
assignedclass = "Not fulfilled"

[[record]]
compound = "O=C1OCCC=C[C@H]2OC34C=CCN(c5ccc(Cl)cc5)C(=O)[C@H]3N(CCCCCO)C(=O)[C@@H]4C12 (some centres not stated)"
assignedclass = "Not fulfilled"

[[record]]
compound = "C=CCC(OC(C)=O)[C@@H]1[C@@H](N(Cc2cc3ccccc3o2)C(=O)Cc2ccc(F)cc2)c2cc(OCCCO)ccc2N1C(=O)c1ccc2ccccc2n1 (some centres not stated)"
assignedclass = "Not fulfilled"

[[record]]
compound = "CCOc1cc(C(O)C2C=CC3C(=O)N(C)C(=O)C3N2N2CCCCC2)ccc1O (configuration not stated)"
assignedclass = "Fulfilled"

[[record]]
compound = "[N-]=[N+]=Nc1ccccc1C[C@@]1(C(=O)O)N=C(c2ccc(OCCCO)cc2)O[C@@H]1c1ccccc1"
assignedclass = "Fulfilled"

[[record]]
compound = "[N-]=[N+]=NCc1ccccc1C[C@@]1(C(N)=O)N=C(c2ccc(OCCCO)cc2)O[C@@H]1c1ccccc1CN=[N+]=[N-]"
assignedclass = "Fulfilled"

[[record]]
compound = "CCCC=C(CCC)[C@@H](NP(=O)(c1ccccc1)c1ccccc1)c1ccc(C(F)(F)F)cc1"
assignedclass = "Fulfilled"

[[record]]
compound = "CN1C2C=C(CCCO)C(C3C(=O)N(C(N)=O)C(=O)C32)C1c1cccs1 (configuration not stated)"
assignedclass = "Fulfilled"


Please tell me: is the compound NC(=O)NCC#Cc1ccc2c(c1)[C@]1(C(=O)N2)[C@H](C(=O)Nc2nc3ccccc3s2)[C@H]2C(=O)O[C@H](c3ccccc3)[C@H](c3ccccc3)N2[C@@H]1c1ccc(O)cc1 at or over 0.2 in terms of composite z-score?
Fulfilled

Please tell me: is the compound O=C1c2ccccc2[C@@]2(Cc3ccccc3N(C3CC3)C2=O)[C@H](c2ccc(CO)cc2)N1C1CCCCC1 at or over 0.2 in terms of composite z-score?
Not fulfilled

Please tell me: is the compound C[C@H]1ON(c2ccc(C(=O)OC(C)(C)C)cc2)[C@@H](c2ccc(O)cc2)[C@@H]1C(=O)N1C(=O)OC[C@@H]1c1ccccc1 at or over 0.2 in terms of composite z-score?
Not fulfilled

Please tell me: is the compound C=C(C(=O)CC[C@H](OC(C)=O)c1cccc(OCCO)c1)C(C)C at or over 0.2 in terms of composite z-score?
Not fulfilled

Please tell me: is the compound CC[C@H]1C2=C3C(CC[C@H]4C(OCc5ccc(F)cc5C(F)(F)F)OC[C@](C)([C@@H]34)N(C(=O)OC(C)(C)C)C2)C2COC(=O)OCC21 (some centres not stated) at or over 0.2 in terms of composite z-score?
Fulfilled

Please tell me: is the compound CC(C)N1C(=O)[C@@]2(c3ccc([N+](=O)[O-])cc3)CC(=O)N(C3CCCCC3)[C@@H]2c2ccc(CO)cc21 at or over 0.2 in terms of composite z-score?
Not fulfilled

Please tell me: is the compound CCOC(=O)C[C@H]1[C@H](OC(=O)c2ccc(-c3ccccc3)cc2)[C@@H](NC(=O)C2CCCCC2)c2cc(OCCCO)ccc2N1C(=O)c1ccccc1 at or over 0.2 in terms of composite z-score?
Not fulfilled
